- Test system: BT-549
- measurement notes: NCI tumour cell line growth inhibition, 48 h
The source made the active and inactive calls. Rule as the data show it: active = GI50 up to about 1.1 µM and inactive = higher.
readout name: GI50

Here's what some known entries look like.
compound	measured on	GI50
CC(=O)NNc1nc(C)c(C(/C=C/c2ccccc2O)=N/N=C(N)N)s1	BT-549	> 100 µM (inactive)
Nc1ccccc1C(=O)N/N=C1\C(=O)Nc2ccccc21	BT-549	30.8 µM (inactive)
N/C(=N\N/C=C1\C=Nc2cc(C(F)(F)F)ccc2C1=O)NO	BT-549	> 10 µM (inactive)

Qu. Given the entry CC(NC(=O)C1(N)CCCC1)C(=O)O (configuration not stated) , report its measured GI50.
Ans. > 100 µM (inactive)

Qu. Looking for the measured GI50 of "O=C(O)c1c(Br)c(Br)c(Br)c(Br)c1C1c2ccc(O)cc2Oc2cc(O)ccc21" , can you help?
Ans. > 100 µM (inactive)

Qu. Any idea what GI50 was measured for CN1C/C(=C\c2cccs2)C2=NN(c3ccccc3)C(c3cccs3)C2C1 (configuration not stated) ?
Ans. 17.9 µM (inactive)

---

- Tested on: MDA-N
- measurement notes: NCI tumour cell line growth inhibition, 48 h
Activity calls are given as the source filed them. Rule as the data show it: active = GI50 up to about 1.1 µM and inactive = higher.
# GI50 per entry

Below, 5 compounds whose answers are already recorded.
compound	measured on	readout name	data value
CCOC(=O)C(NC(=O)c1ccccc1)(N1CCN(c2cc3c(cc2F)c(=O)c(C(=O)O)cn3C2CC2)CC1)C(F)(F)F (stereo not given)	MDA-N	GI50	21.1 µM (inactive)
c1ccc(C/C(=N\Nc2nc3ccccc3[nH]2)c2ccccn2)cc1	MDA-N	GI50	0.262 µM (active)
CN(C(=O)Cc1cc(Cl)c(Cl)cc1NC(=O)CN)[C@H]1CCCC[C@@H]1N1CCCC1	MDA-N	GI50	15.3 µM (inactive)
Cc1c(C(=O)c2ccccc2)[n+]([O-])c2cc(Cl)c(Cl)cc2[n+]1[O-]	MDA-N	GI50	12.3 µM (inactive)
CC(C)(C)NCCC(O)c1cc(C(F)(F)F)nc2c(C(F)(F)F)cccc12 (stereo not given)	MDA-N	GI50	11.5 µM (inactive)

Qu. Which GI50 value belongs to "Cc1cc(N(C)C)c2ccccc2[n+]1CCCCCCCCCC[n+]1c(C)cc(N(C)C)c2ccccc21.[O-][Cl+3]([O-])([O-])[O-].[O-][Cl+3]([O-])([O-])[O-]" ?
Ans. 0.485 µM (active)

Qu. Using the record for "O=[N+]([O-])c1cccc2nc3ccccc3c(NCCCCCNc3c4ccccc4nc4cccc([N+](=O)[O-])c34)c12" , report its GI50.
Ans. 0.0536 µM (active)

Qu. What value of measured GI50 is listed for O=C1c2ccccc2C2(c3ccc(Cl)cc3)N[C@@H]3CCCC[C@@H]3N12 (stereo not given in full) ?
Ans. > 100 µM (inactive)

Qu. Give its GI50 value. Item: "CC(C)(C)OC(=O)c1ccc(NCc2cc(O)ccc2O)cc1"
Ans. 3.31 µM (inactive)

Qu. Name the recorded GI50 for O=C1CSC(c2cccc(Cl)c2)N1c1c(O)c(Cl)cc(Br)c1Cl (stereo not given) .
Ans. 17.1 µM (inactive)

Qu. Report GI50 for CCOC(=O)c1c(-c2ccc(OC)cc2)c(C#N)c(=S)n(C2OC(COC(C)=O)C(OC(C)=O)C(OC(C)=O)C2OC(C)=O)c1-c1ccccc1 (stereo not given) please.
Ans. > 100 µM (inactive)
